Consider the following compounds and their measured GI50 readings.
# System: UACC-257 melanoma
# TEST DESCRIPTION: NCI tumour cell line growth inhibition, 48 h

- COMPOUND: "N#Cc1ccc2c(c1)C(=O)c1c-2n(CCCN=[N+]=[N-])c(=O)c2cc([N+](=O)[O-])ccc12"
  GI50: "> 50 µM"
- COMPOUND: "COc1ccc(S(=O)(=O)n2c3ccccc3n3ncc(-c4nnc(C)o4)c23)cc1"
  GI50: "22.4 µM"
- COMPOUND: "C=C(C)[C@@H]1CC[C@]2(C)[C@H](CC=C3[C@@H]4[C@H](C)[C@@H](C)CC[C@]4(CO)CC[C@]32C)[C@@]1(C)CCCN"
  GI50: "1.04 µM"
- COMPOUND: "O[C@H](CN1CC1)[C@@H](O)CN1CC1"
  GI50: "11.6 µM"
- COMPOUND: "CCC(=O)OC1=CN2C(=NC(c3ccc(N)cc3)=CC2c2cc(OC)c(OC)c(OC)c2)S1 (stereo not given)"
  GI50: "5.96 µM"
